Reference source: patent US7915420B2

systemUnderTest: human glycine transporter-2 (GlyT2) (Homo sapiens, UniProt Q9Y345)
Construct: The entire coding region of the human GlyT2 cDNA was cloned into the mammalian expression vector pCINeo
Sequence (Q9Y345 whole entry): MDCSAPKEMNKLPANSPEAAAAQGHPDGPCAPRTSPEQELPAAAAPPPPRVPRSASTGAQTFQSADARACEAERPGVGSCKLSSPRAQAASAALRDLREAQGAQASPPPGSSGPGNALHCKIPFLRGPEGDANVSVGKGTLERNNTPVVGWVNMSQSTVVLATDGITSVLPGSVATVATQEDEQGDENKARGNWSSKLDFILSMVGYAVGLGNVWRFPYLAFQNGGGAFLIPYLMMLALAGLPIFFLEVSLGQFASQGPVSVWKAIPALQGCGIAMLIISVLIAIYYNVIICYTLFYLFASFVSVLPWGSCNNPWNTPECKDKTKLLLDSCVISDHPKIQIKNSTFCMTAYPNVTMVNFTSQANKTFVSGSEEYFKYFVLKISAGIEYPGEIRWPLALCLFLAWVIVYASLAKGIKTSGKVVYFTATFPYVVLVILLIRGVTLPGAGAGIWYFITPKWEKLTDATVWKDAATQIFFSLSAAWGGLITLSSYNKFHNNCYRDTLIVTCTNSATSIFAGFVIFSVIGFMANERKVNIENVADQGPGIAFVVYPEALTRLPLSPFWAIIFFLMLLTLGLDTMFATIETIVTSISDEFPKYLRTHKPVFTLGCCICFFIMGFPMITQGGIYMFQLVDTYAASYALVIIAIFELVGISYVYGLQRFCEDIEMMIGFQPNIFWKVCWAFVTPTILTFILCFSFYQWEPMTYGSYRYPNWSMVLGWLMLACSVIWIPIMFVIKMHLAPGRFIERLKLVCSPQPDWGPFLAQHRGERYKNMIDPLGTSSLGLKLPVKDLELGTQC
protocolNotes: GlyT2 inhibitory activity: inhibition of [14C]-glycine uptake in COS-7 cells transfected with human GlyT2
conditionContext: Cos-7 cells stably transfected with human GlyT2; 20 μM 14C-glycine, 2 h at 37° C.
Protocol: GlyT2 antagonist activity of representative compounds of the invention was determined in accordance with the assay described in the Examples and by measuring the ability of compounds to inhibit the uptake of [^14C]-glycine in COS-7 cells transfected with the human glycine transporter-2 (GlyT2). The GlyT2 antagonist activities of these representative compounds are set forth hereinafter in Table 1. […]
measuredQuantity: pIC50
To interpret pIC50, take it as minus log10 of a concentration measured in moles per litre.

Example entries begin here.
# smilesText, pIC50
measured = [
    ("O=C(c1cccc(CNCCNc2cccc(Br)c2)c1)N1CCCCC1", 5.51),
    ("O=C(c1cccc(CNCCNc2ccccc2OC2CCCC2)c1)N1CCCCC1", 5.92),
]

# next compound below
Given the compound `CCC(CC)Oc1ccccc1NCCNCc1cccc(C(=O)N2CCCCC2)c1` , what is its reported pIC50?
5.52
